The reported measurements were obtained from ChEMBL document CHEMBL5634086.

target: NACHT, LRR and PYD domains-containing protein 3 (Homo sapiens); assay: Inhibition of NLRP3 inflammasome in LPS-induced […] cells assessed as reduction in IL-1beta release preincubated for 1 hr followed by ATP addition and measured after 30 mins by ELISA
Sequence (Q96P20 whole entry, the tested form may be a part): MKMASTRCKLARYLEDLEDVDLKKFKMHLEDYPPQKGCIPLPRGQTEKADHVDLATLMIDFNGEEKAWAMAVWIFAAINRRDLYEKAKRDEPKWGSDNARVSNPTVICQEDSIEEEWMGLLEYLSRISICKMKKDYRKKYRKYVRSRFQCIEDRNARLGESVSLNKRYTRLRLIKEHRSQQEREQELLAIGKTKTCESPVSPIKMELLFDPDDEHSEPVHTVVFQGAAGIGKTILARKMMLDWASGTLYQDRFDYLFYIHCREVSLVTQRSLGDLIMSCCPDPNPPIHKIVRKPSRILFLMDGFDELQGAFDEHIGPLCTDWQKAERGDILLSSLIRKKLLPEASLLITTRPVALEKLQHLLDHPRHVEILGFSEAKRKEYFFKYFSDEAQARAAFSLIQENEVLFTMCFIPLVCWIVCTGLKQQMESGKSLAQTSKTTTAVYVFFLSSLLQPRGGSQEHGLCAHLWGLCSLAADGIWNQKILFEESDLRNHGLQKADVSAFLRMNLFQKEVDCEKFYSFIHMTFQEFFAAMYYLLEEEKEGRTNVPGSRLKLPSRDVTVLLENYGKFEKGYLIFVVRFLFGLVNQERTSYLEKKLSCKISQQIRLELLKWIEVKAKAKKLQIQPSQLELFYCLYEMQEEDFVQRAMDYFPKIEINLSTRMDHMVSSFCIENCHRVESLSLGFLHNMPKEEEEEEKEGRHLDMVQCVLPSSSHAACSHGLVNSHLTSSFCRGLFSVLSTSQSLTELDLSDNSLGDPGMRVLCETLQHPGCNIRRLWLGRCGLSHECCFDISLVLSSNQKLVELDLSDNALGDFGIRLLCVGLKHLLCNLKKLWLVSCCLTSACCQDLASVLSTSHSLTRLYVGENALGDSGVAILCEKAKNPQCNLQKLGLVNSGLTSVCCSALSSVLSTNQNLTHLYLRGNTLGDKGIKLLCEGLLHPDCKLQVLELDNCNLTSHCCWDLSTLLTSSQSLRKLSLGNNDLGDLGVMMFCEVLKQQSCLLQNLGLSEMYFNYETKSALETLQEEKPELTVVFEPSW
observed property: pIC50
Numbers only, as −log10 of the molar value.

Exam item: Record O=c1[nH]c(-c2ccc([N+](=O)[O-])cc2)nc2ccccc12 : what is its pIC50 with NACHT, LRR and PYD domains-containing protein 3 (Homo sapiens)?
Marked response: 5.30

====

biological target: Glycogen synthase kinase-3 beta (Homo sapiens, UniProt P49841); test: Inhibition of GSK3beta (unknown origin) expressed in Sf9 cells incubated for 30 mins in presence of [gamma32P]ATP by scintillation counting method
Sequence (P49841 whole entry): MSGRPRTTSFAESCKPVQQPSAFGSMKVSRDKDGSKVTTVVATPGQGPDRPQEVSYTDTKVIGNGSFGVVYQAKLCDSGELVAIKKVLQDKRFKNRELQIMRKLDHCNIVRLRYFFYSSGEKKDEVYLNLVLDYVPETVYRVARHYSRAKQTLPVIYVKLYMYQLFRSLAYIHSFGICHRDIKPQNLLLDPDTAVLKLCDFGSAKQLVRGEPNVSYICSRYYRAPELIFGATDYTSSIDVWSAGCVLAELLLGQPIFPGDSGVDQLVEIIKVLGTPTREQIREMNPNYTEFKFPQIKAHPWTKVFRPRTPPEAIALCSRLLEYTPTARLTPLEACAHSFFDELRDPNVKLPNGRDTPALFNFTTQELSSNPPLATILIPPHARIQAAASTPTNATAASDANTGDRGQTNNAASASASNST
observed property: IC50 (nM)
Give bare numbers, in nM.

Exam item: Any idea what its IC50 is? The compound is O=C1Cc2c([nH]c3ccc([N+](=O)[O-])cc23)-c2ncccc2N1
Marked response: 4
